Biological target: Cytochrome P450 1A2 (Homo sapiens) (UniProt P05177)
Sequence (P05177 whole entry, looked up): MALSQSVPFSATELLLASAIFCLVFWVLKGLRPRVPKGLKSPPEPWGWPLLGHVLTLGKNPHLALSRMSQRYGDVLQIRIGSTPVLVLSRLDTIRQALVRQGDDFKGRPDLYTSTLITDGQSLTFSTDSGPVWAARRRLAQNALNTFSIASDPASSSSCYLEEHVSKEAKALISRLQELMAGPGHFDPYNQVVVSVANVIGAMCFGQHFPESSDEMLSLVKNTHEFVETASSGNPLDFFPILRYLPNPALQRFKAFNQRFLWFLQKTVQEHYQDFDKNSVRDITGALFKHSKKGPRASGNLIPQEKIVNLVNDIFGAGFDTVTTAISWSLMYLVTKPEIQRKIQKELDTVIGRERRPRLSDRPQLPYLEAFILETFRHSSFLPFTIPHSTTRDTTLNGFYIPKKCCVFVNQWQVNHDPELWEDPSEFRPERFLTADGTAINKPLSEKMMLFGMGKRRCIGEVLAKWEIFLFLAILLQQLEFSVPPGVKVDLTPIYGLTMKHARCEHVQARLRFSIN
Test: p450-cyp1a2 (AID 410)
Conditions: recombinant CYP1A2, luciferin-ME demethylation, luminescence; series mostly up to 25.6 µM
Records with an inconclusive call do not appear. Calls of active or inactive are those of the source. The call rests on the fitted dose curve.
// classify into active, inactive

Smiles Input: COc1ccc([C@@H]2CC(=O)c3c(O)cc(O[C@H]4O[C@@H](CO[C@H]5O[C@@H](C)[C@@H](O)[C@@H](O)[C@@H]5O)[C@@H](O)[C@@H](O)[C@@H]4O)cc3O2)cc1O
Class Label: inactive
--
Smiles Input: C[C@@H]1O[C@H](O[C@@H]2[C@H](C)O[C@H](O[C@@H]3[C@H](C)O[C@H](O[C@H]4CC[C@]5(C)[C@@H](CC[C@@H]6[C@H]5C[C@@H](O)[C@]5(C)[C@@H](C7=CC(=O)OC7)CC[C@]65O)C4)C[C@@H]3O)C[C@@H]2O)C[C@H](O)[C@@H]1O
Class Label: inactive
--
Smiles Input: COC(=O)C1=C(C)NC(C)=C(C(=O)OC(C)C)[C@H]1c1cccc2nonc12
Class Label: active
--
Smiles Input: Cc1onc(-c2c(Cl)cccc2Cl)c1C(=O)N[C@H]1C(=O)N2[C@H]1SC(C)(C)[C@H]2C(=O)O
Class Label: inactive
--
Smiles Input: CC(=O)N[C@H](CS)C(=O)O
Class Label: inactive
--
Smiles Input: CC1(C)O[C@@H]2C[C@H]3[C@H]4C[C@H](F)C5=CC(=O)CC[C@]5(C)[C@@H]4[C@H](O)C[C@]3(C)[C@]2(C(=O)CO)O1
Class Label: inactive
--
Smiles Input: OCCN1CCN(CCC=C2c3ccccc3Sc3ccc(Cl)cc32)CC1
Class Label: active
--
Smiles Input: CC1(C)O[C@H]2C[C@@H]3[C@H]4CCC5=CC(=O)CC[C@@]5(C)[C@]4(F)[C@@H](O)C[C@@]3(C)[C@@]2(C(=O)CCl)O1
Class Label: inactive
--
Smiles Input: CCOC(=O)[C@H](CCc1ccccc1)N[C@@H](C)C(=O)N1[C@H](C(=O)O)C[C@H]2CCC[C@@H]21
Class Label: inactive
--
Smiles Input: CC[C@H](C(=O)[C@H](C)[C@H](O)[C@H](C)CCc1ccc(C)c(O)c1C(=O)O)[C@H]1O[C@](CC)([C@@H]2CC[C@@](O)(CC)[C@H](C)O2)C[C@H]1C
Class Label: inactive

What call does the record list for "CN1[C@H](CC(=O)c2ccccc2)CCC[C@H]1C[C@@H](O)c1ccccc1" ?
active

"Cc1n[nH]c(=O)[nH]c1=O" , same question.
inactive

"CCN1CCN(C(=O)N[C@H](C(=O)N[C@@H]2C(=O)N3[C@@H]2SC(C)(C)[C@@H]3C(=O)O)c2ccccc2)C(=O)C1=O" , same question.
inactive

"O=C(Nc1ccccc1)OC[C@H](CN1CCCCC1)OC(=O)Nc1ccccc1" , same question.
active

"CN1CC[C@@]23c4ccccc4N[C@H]1[C@]21CCN(C)[C@@H]3Nc2ccccc21" , same question.
inactive

"CNc1ncnc2c1ncn2[C@@H]1O[C@H](CO)[C@@H](O)[C@@H]1O" , same question.
inactive

====

Experiment: qHTS profiling for inhibitors of Plasmodium falciparum proliferation (AID 504749); further: nearly all actives have a fitted effect of over 60% in size;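 on activity, negative = inhibition: 0% = DMSO vehicle and full inhibition = artemisinin control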
Conditions: P. falciparum in erythrocytes, SYBR Green DNA, 72 h; at 28.7 µM (top of the series); parasite line A
Inconclusive results are not listed.
Measured Property: activity, negative = inhibition (%)
Reply numerically in %, unit not repeated.

Molecule: O=C(O)[C@@H]1CCCN1
Reported Result: 3.04

Need activity, negative = inhibition, item "Cc1ccc2c(c1)c1c3n2CCN[C@H]3CCC1"
-1.32

====

System: CP238
Assay: qHTS profiling for inhibitors of Plasmodium falciparum proliferation (AID 504749); further: nearly all actives have a fitted effect of over 60% in size
Details: P. falciparum in erythrocytes, SYBR Green DNA, 72 h; series mostly up to 12.8 µM
Results filed as inconclusive are left out. Calls of active or inactive are those of the source. The call rests on the fitted dose curve; in most records, active means well fitted inhibition curve with a large enough effect; inconclusive means small, poorly fitted or top-dose-only effect; inactive means flat fitted curve, though single readings scatter.
// classify into T = active, F = inactive

Please review the entries below; each comes with its answer.
Compound: COc1cc(N[C@@H](C)CCCN)c2ncccc2c1
Class Label: T
//
Compound: COc1ccc(OC)c([C@H](O)CNC(=O)CN)c1
Class Label: F

What call does the record list for "CN1CC(=O)N=C1N" ?
F

COC1C=CO[C@@]2(C)Oc3c(C)c(O)c4c(O)c(c5c(nc6cc(C)ccn65)c4c3C2=O)NC(=O)/C(C)=C\C=CC(C)C(O)[C@@H](C)C(O)C(C)[C@@H](OC(C)=O)C1C (some centres undefined) , same question.
T

"Cn1nnnc1SCC1=C(C(=O)O)N2C(=O)[C@@H](NC(=O)[C@@H](O)c3ccccc3)[C@@H]2SC1" , same question.
F

"COc1ccc2c(c1)N(C[C@@H](C)CN(C)C)c1ccccc1S2" , same question.
F

"CCc1c(C)[nH]c2c1C(=O)[C@H](CN1CCOCC1)CC2" , same question.
F

"CC1(C)S[C@@H]2[C@H](NC(=O)[C@@H](N)c3ccccc3)C(=O)N2[C@H]1C(=O)O[C@H]1OC(=O)c2ccccc21" , same question.
F

"O=C(NC[C@@H](O)CO)c1c(I)c(C(=O)NC[C@@H](O)CO)c(I)c(N(CCO)C(=O)CO)c1I" , same question.
F

====

System: PAD
Assay: qHTS profiling for inhibitors of Plasmodium falciparum proliferation (AID 504749); further: nearly all actives have a fitted effect of over 60% in size
Settings: P. falciparum in erythrocytes, SYBR Green DNA, 72 h; series mostly up to 12.8 µM
Results filed as inconclusive are left out. Activity calls are given as the source filed them. The call rests on the fitted dose curve; in most records, active means well fitted inhibition curve with a large enough effect; inconclusive means small, poorly fitted or top-dose-only effect; inactive means flat fitted curve, though single readings scatter.
// classify into T = active, F = inactive

Please review the entries below; each comes with its answer.
Compound: COc1ccc(C[C@@](C)(N)C(=O)O)cc1OC
Study System: PAD
Class Label: F
//
Compound: CN(C)CCc1c[nH]c2ccc(CC3COC(=O)N3)cc12 (stereo not drawn)
Study System: PAD
Class Label: F
//
Compound: CC1(C)OC2CO[C@]3(COS(N)(=O)=O)OC(C)(C)OC3C2O1 (stereo partly drawn)
Study System: PAD
Class Label: F
//
Compound: CC(=C(CCOP(=O)(O)O)SC(=O)c1ccccc1)N(C=O)Cc1cnc(C)nc1N
Study System: PAD
Class Label: F
//
Compound: CNC1CC(N)[C@H](O)[C@@H](O[C@@H]2OC(CO)C3OC4(OC(C(N)CO)C(O)C(O)C4O)O[C@@H]3[C@H]2O)C1O (stereo partly drawn)
Study System: PAD
Class Label: F

What call does the record list for "COc1ccc(OC)c([C@H](O)CNC(=O)CN)c1" ?
F

CCCC(=O)O[C@]1(C(=O)CO)CCC2[C@@H]3CCC4=CC(=O)CC[C@]4(C)C3C(O)C[C@]21C (stereo partly drawn) , same question.
F

"C=CC1=C(C(=O)O)N2C(=O)[C@@H](NC(=O)/C(=N\OCC(=O)O)c3csc(N)n3)[C@@H]2SC1" , same question.
F

CCC1OC(=O)C(C)[C@@H](O[C@H]2C[C@@](C)(OC)C(O)C(C)O2)C(C)[C@@H](O[C@@H]2OC(C)CC(N(C)C)C2O)[C@@](C)(O)CC(C)C(=O)[C@@H](C)C(O)[C@]1(C)O (stereo partly drawn) , same question.
F

O=C1OC(CO)C(O)C(O)C1O (stereo not drawn) , same question.
F

"CC(=O)[C@@H]1CC[C@@H]2[C@@H]3C[C@H](C)C4=CC(=O)CC[C@@]4(C)[C@H]3[C@H](O)C[C@]21C" , same question.
F

====

Recorded measurements of max response, one per entry
Assay: qHTS Assay for Lipid Storage Modulators (AID 1519)
Settings: Drosophila S3 cells, BODIPY lipid droplet/cell ratio, laser cytometry; measured here: lipid channel max response; cells loaded with oleic acid
Inconclusive results are not listed.
Reply numerically in %, unit not repeated.

Take a look at these entries with their results.
Compound: Nc1nc2c([nH]c(=O)n2C2OC(CO)C(O)C2O)c(=O)[nH]1 (configuration not stated)
Reported Result: 13.6

Compound: CC(=O)OC1CC2C(C)(C)C(O)CC(O)[C@@]2(C)C2CC[C@@]3(C)C(=CC(=O)OC3c3ccoc3)[C@]12C (some centres not stated)
Reported Result: 3.91

Compound: COc1cccc(O)c1O
Reported Result: 20.7

Compound: C[C@@H]1[C@H](C)CC[C@@]2(C(=O)O[C@H]3O[C@@H](CO[C@H]4O[C@@H](CO)[C@@H](O[C@H]5O[C@@H](C)[C@@H](O)[C@@H](O)[C@@H]5O)[C@@H](O)[C@@H]4O)[C@@H](O)[C@@H](O)[C@@H]3O)CC[C@]3(C)C(=CC[C@H]4[C@@]5(C)C[C@@H](O)[C@@H](O)[C@](C)(CO)[C@@H]5CC[C@@]43C)[C@@H]12
Reported Result: -10.2

Compound: CC1(C)S[C@@H]2[C@H](NC(=O)C(N)c3ccccc3)C(=O)N2[C@H]1C(=O)O (some centres not stated)
Reported Result: 6.97

Compound: COc1ccc([C@@H]2CC(=O)c3c(O)cc(O[C@H]4O[C@@H](CO[C@H]5O[C@@H](C)[C@@H](O)[C@@H](O)[C@@H]5O)[C@@H](O)[C@@H](O)[C@@H]4O)cc3O2)cc1O
Reported Result: -8.76

Compound: CC1CCC(C(C)C)C(=O)C1 (configuration not stated)
Reported Result: 14.2

Compound: C[C@H](NCCC(c1ccccc1)c1ccccc1)c1ccccc1
Reported Result: -22.3

Compound: OCCN1CCN(CCC=C2c3ccccc3Sc3ccc(Cl)cc32)CC1
Reported Result: -20.1

Compound: CC(=O)OCC(=O)[C@@]12OC(C)(C)O[C@@H]1C[C@H]1[C@H]3C[C@H](F)C4=CC(=O)C=C[C@@]4(C)[C@]3(F)[C@H](O)C[C@@]12C
Reported Result: -17.4

Need max response, item COc1ccc(CCC(=O)c2c(O)cc(OC3OC(CO)C(O)C(O)C3O[C@@H]3OC(C)C(O)C(O)C3O)cc2O)cc1O (some centres not stated)
14.6

CCCC(=O)O[C@]1(C(=O)CO)CCC2[C@@H]3CCC4=CC(=O)CC[C@]4(C)C3C(O)C[C@]21C (some centres not stated) , same question.
23.2
